Data provenance is paper PMC10377574.

assay: Biodistribution in mice bearing PC-3 tumors; settings: Balb/c nu/nu, mouse, pancreas, iv, 40 pmol, total radioactivity, Pancreas uptake, 1 h pi, n = 4
endpointLabel: tissue uptake at 1 h

Can you look up the measured tissue uptake at 1 h of CC(C)C[C@H](NC(=O)C[C@H](O)[C@H](CC(C)C)NC(=O)[C@H](Cc1c[nH]cn1)NC(=O)CN(C)C(=O)[C@@H](NC(=O)[C@H](C)NC(=O)[C@H](Cc1c[nH]c2ccccc12)NC(=O)[C@H](CCC(N)=O)NC(=O)[C@@H](Cc1ccccc1)NC(=O)COCCOCCNC(=O)CCC(C(=O)O)N1CCN(CC(=O)O)CCN(CC(=O)O)CCN(CC(=O)O)CC1)C(C)C)C(N)=O (mixture of isomers) [[^111In]In-AU-RM26-M1, [^111In]In-DOTAGA-PEG2-(Sar^11)RM26, metal not drawn] for me?
2.2 %ID/g

---

test: Biodistribution in mice bearing PC-3 tumors; details: Balb/c nu/nu, mouse, pancreas, iv, 40 pmol, total radioactivity, Pancreas uptake, 24 h pi, n = 4
endpointLabel: tissue uptake at 24 h (%ID/g)
Just the number in %ID/g, nothing appended.

Can you look up the measured tissue uptake at 24 h of CC(C)C[C@H](NC(=O)C[C@H](O)[C@H](CC(C)C)NC(=O)[C@H](Cc1c[nH]cn1)NC(=O)CN(C)C(=O)[C@@H](NC(=O)[C@H](C)NC(=O)[C@H](Cc1c[nH]c2ccccc12)NC(=O)[C@H](CCC(N)=O)NC(=O)[C@@H](Cc1ccccc1)NC(=O)COCCOCCNC(=O)CCC(C(=O)O)N1CCN(CC(=O)O)CCN(CC(=O)O)CCN(CC(=O)O)CC1)C(C)C)C(N)=O (mixture of isomers) [[^111In]In-AU-RM26-M1, [^111In]In-DOTAGA-PEG2-(Sar^11)RM26, metal not drawn] for me?
0.03

---

test: in vivo; details: Balb/c nu/nu, mouse, iv, 40 pmol, total radioactivity, Small intestine uptake
endpointLabel: tissue uptake at 24 h
Express the reported value numerically, then name its unit.

Can you look up the measured tissue uptake at 24 h of CC(C)C[C@H](NC(=O)C[C@H](O)[C@H](CC(C)C)NC(=O)[C@H](Cc1c[nH]cn1)NC(=O)CNC(=O)[C@@H](NC(=O)[C@H](C)NC(=O)[C@H](Cc1c[nH]c2ccccc12)NC(=O)[C@H](CCC(N)=O)NC(=O)[C@@H](Cc1ccccc1)NC(=O)COCCOCCNC(=O)CCC(C(=O)O)N1CCN(CC(=O)O)CCN(CC(=O)O)CCN(CC(=O)O)CC1)C(C)C)C(N)=O (mixture of isomers) [[^111In]In-DOTAGA-PEG2-RM26, metal not drawn] for me?
0.05 %ID/g

---

test: Biodistribution in mice bearing PC-3 tumors; conditions: Balb/c nu/nu, mouse, pancreas, iv, with unlabeled NOTA-PEG2-RM26, 5 nmol (in vivo GRPR blocking), total radioactivity, pancreas uptake, blocked group, 1 h pi, excess unlabeled NOTA-PEG2-RM26 (5 nmol), n = 4
endpointLabel: tissue uptake at 1 h (%ID/g)
Just the number in %ID/g, nothing appended.

Can you look up the measured tissue uptake at 1 h of CC(C)C[C@H](NC(=O)C[C@H](O)[C@H](CC(C)C)NC(=O)[C@H](Cc1c[nH]cn1)NC(=O)CN(C)C(=O)[C@@H](NC(=O)[C@H](C)NC(=O)[C@H](Cc1c[nH]c2ccccc12)NC(=O)[C@H](CCC(N)=O)NC(=O)[C@@H](Cc1ccccc1)NC(=O)COCCOCCNC(=O)CCC(C(=O)O)N1CCN(CC(=O)O)CCN(CC(=O)O)CCN(CC(=O)O)CC1)C(C)C)C(N)=O (mixture of isomers) [[^111In]In-AU-RM26-M1, [^111In]In-DOTAGA-PEG2-(Sar^11)RM26, metal not drawn] for me?
0.3
